# tested on: PRKD3 (Homo sapiens)
# Sequence (O94806 1-890): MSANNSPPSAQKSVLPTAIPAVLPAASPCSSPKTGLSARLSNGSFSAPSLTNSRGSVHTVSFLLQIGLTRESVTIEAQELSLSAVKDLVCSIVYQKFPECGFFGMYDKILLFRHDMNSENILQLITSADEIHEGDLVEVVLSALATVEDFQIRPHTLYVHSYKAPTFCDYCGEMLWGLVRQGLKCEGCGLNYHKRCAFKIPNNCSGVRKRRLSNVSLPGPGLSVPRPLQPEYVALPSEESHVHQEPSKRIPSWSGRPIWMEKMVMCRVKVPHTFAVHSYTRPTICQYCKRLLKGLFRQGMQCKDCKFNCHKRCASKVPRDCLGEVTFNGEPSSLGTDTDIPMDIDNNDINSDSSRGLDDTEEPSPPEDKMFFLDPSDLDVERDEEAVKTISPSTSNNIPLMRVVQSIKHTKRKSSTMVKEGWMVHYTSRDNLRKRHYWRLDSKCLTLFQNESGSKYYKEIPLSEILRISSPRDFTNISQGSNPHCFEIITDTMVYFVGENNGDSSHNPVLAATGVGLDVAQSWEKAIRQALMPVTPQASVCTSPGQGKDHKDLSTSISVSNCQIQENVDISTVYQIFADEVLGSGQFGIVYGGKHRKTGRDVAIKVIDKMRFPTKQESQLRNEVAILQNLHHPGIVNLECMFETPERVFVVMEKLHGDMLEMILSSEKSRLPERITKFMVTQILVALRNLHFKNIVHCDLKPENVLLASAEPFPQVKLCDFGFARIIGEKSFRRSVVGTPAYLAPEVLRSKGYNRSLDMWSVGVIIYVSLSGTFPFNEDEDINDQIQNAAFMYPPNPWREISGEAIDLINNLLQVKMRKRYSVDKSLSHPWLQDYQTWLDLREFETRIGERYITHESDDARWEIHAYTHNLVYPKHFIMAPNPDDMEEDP
# experimental protocol: biochemical
# condition description: read-out: KDapp
measurement kind: Kd (µM)

> print(dat)
                            compound.smiles  result.number
1  CN1CCN(c2ccc(Nc3ncc(C#N)c(Nc4ccccc4C(N)=O)n3)cc2)CC1.Cl          0.166
2  Cl.NCC1(c2nc(-c3ccc(Cl)c(O)c3)c(-c3ccncc3)[nH]2)CCCCC1           3.91
